Molecular target: CCR2 (Homo sapiens)
Sequence (P41597 1-360 isoform P41597-2): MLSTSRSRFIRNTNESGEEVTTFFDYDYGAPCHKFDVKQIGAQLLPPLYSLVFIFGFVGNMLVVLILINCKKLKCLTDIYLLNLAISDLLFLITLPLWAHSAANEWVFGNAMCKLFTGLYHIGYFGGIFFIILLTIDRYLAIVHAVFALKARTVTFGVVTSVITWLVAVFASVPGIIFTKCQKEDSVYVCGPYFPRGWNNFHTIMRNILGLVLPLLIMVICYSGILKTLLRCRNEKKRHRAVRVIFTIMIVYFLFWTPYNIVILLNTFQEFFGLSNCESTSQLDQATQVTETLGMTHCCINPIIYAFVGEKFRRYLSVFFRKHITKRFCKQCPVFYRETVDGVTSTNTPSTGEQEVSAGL
Assay: Inhibition of MCP-1 induced Ca-flux in human THP-1 cells
Type: cell-based
Parameters: host or cells: THP-1 (human monocytic cell line)
Settings: -log IC50 (molar), inhibition of specific MCP-1 (10^-7 M hMCP-1) induced Ca2+ flux, FLIPR
PROPERTY_NAME: IC50 (nM)
Use nM as the unit, but write only the number.

Form: compound = CCC(c1ccc(Cl)c(Cl)c1)n1c(C(=O)OC)c(-c2cccnc2)[nH]c1=S (centres unmarked) [Compound 51] ; IC50 = 39.8

Form: compound = CCC(c1ccc(Cl)c(Cl)c1)n1c(C(=O)OC)c(-c2ccncc2)[nH]c1=S (centres unmarked) [Compound 33] ; IC50 = 12.6

Form: compound = CCC(c1ccc(Cl)c(Cl)c1)n1c(C(=O)OC)c(-c2ccccn2)[nH]c1=S (centres unmarked) [Compound 32] ; IC50 = 25.1

Form: compound = CCC(c1ccc(Cl)c(Cl)c1)n1c(C(=O)OC)c(-c2cccs2)[nH]c1=S (centres unmarked) [Compound 6] ; IC50 = 55

Form: compound = CCC(c1ccc(Cl)c(Cl)c1)n1c(C(=O)OC)c(-c2snnc2C)[nH]c1=S (centres unmarked) [Compound 24] ; IC50 = 72.4

Form: compound = CC[C@H](c1ccc(F)c(F)c1)n1c(C(=O)OC)c(-c2ccno2)[nH]c1=S [Compound 43] ; IC50 = 7.94

Form: compound = CCC(c1ccc(F)c(F)c1)n1c(S)nc(-c2cc(C)on2)c1C(=O)OCCOC (centres unmarked) [Compound 16] ; IC50 = 31.6

Form: compound = CCC(c1ccc(Cl)c(Cl)c1)n1c(C(=O)OC)c(-c2ccccc2)[nH]c1=S (centres unmarked) [Compound 31] ; IC50 = 75.9

###

Give pKi for every item shown.
Remember the convention: pKi equals -log10 of concentration in molar.

// pKi (CCR2B (Homo sapiens, UniProt P41597)) for CCC(c1ccc(Cl)c(Cl)c1)n1c(C(N)=O)c(-c2nnc(C)o2)[nH]c1=S (stereo not shown) = 7.15

// pKi (CCR2B (Homo sapiens, UniProt P41597)) for CCC(c1ccc(F)c(F)c1)n1c(C(=O)OC)c(-c2ccno2)[nH]c1=S (stereo in doubt) = 7.52

// pKi (CCR2B (Homo sapiens, UniProt P41597)) for CCC(c1ccc(Cl)c(Cl)c1)n1c(C(=O)OC)c(-c2ccno2)[nH]c1=S (stereo not shown) = 7.30

// pKi (CCR2B (Homo sapiens, UniProt P41597)) for CCC(c1ccc(Cl)c(Cl)c1)n1c(C(=O)OC)c(-c2ccccc2)[nH]c1=S (stereo not shown) = 7.15

###

Target: UniProtKB P41597
Assay: Inhibition of MCP-1 induced Ca-flux in human THP-1 cells
Type: cell-based
Parameters: host or cells: THP-1 (human monocytic cell line)
Settings: -log IC50 (molar), inhibition of specific MCP-1 (10^-7 M hMCP-1) induced Ca2+ flux, FLIPR
Description: Inhibition of MCP-1 Induced Ca-Flux in Human THP-1 Cells MCP-1 binding to the CCR2 receptor induces a rapid and transient intracellular release of Ca^2+ (secondary messenger) in several cell lines (Charo et al, PNAS 1994). Free Ca^2+ levels can be measured using a Ca^2+ sensitive dye. When the CCR2 receptor is blocked with a CCR2 receptor antagonist, the MCP-1 induced release of Ca^2+ is inhibited. […]
PROPERTY_NAME: IC50 (nM)
Use nM as the unit, but write only the number.

Form: compound = CCC(c1ccc(Cl)c(Cl)c1)n1c(C(=O)OC)c(-c2nnc(C)o2)[nH]c1=S (stereo not shown) ; IC50 = 33.1

Form: compound = CCCC(c1ccc(F)c(F)c1)n1c(C(=O)OC)c(-c2ccno2)[nH]c1=S (stereo not shown) ; IC50 = 12.6

Form: compound = CCC(c1ccc(Cl)c(Cl)c1)n1c(C(N)=O)c(-c2nnc(C)o2)[nH]c1=S (stereo not shown) ; IC50 = 39.8

Form: compound = CCCC(c1ccc(F)c(F)c1)n1c(C(=O)OC)c(-c2cc(C)on2)[nH]c1=S (stereo not shown) ; IC50 = 25.1
